Entries and their inhibition at 0.1 mg/kg values follow.
# System: effets β1 (augmentation de la force contractile du myocarde) de l'isoprénaline
# Procedure Summary: β-blocking activity: inhibition of the β1 effects of intravenous isoprenaline in anaesthetised dogs
# Type: in vivo, chiens
# Condition: Canis lupus familiaris, iv; 0,100 mg/kg I.V., dog; inhibition given with negative sign; read-out: % d'inhibition des effets β1^(+) de l'Isoprénaline
Give the number; % is assumed, so skip it.

1) CC(C)(C)NCC(O)COc1ccc(NC(=O)Cc2cccs2)cc1F (stereo not shown) : -96
2) C=CCc1cc(NC(=O)Cc2cccs2)ccc1OCC(O)CNC(C)(C)C (stereo not shown) : -100
3) CC(C)NCC(O)COc1ccc(NC(=O)Cc2ccsc2)cc1Br (stereo not shown) : -100

The reported inhibition at 0.1 mg/kg of the compound CC(C)NCC(O)COc1ccc(NC(=O)Cc2cccs2)cc1Cl (stereo not shown) was -82
